# systemUnderTest: T1, TIM3_rd3.22 HE (I-OnuI variant) (Artificial (I-OnuI from Ophiostoma …))
# T1 chain: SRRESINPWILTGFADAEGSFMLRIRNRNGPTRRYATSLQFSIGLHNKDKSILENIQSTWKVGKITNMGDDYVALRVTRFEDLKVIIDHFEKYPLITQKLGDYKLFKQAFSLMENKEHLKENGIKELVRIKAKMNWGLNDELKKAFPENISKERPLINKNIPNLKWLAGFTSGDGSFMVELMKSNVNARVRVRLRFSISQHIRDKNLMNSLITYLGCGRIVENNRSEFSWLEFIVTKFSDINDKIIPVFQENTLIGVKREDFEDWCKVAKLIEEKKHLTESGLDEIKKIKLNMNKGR
# assayInfo: flow; yeast surface display substrate titration; stated as subnanomolar affinity
# conditionSet: tags: yeast surface display
pKd: −log10 of the molar value.
readoutLabel: pKd

Suppose we examine the binder TIM3 exon 2 HE target site (dsDNA) DNA 1: TGTCCAATAATTCACATCCCTT DNA 2: AAGGGATGTGAATTATTGGACA ; what pKd value has been reported?
> 9.00
